Target: cyBCMA
Assay: Kinetics and affinity of cyBCMA/human IgG interactions by SPR (Bio-Rad Proteon XPR36)
Format: binding, cynomolgus
Settings: 37° C.
// kd (1/s) cyBCMA @37° C. lookup, one value per entry
VALUE_KIND: kd (1/s) cyBCMA @37° C. (s⁻¹)

[[record]]
molecule = "L3.PY/L3.KY/H3.TAQ: anti-BCMA antibody (antibody, V domains shown) VH: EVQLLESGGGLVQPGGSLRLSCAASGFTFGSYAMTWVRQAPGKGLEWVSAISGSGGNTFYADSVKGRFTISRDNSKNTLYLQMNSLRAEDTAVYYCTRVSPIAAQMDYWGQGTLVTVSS VL: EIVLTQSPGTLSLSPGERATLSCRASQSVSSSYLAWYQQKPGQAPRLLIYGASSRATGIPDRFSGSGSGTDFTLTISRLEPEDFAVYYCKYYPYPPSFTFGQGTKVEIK"
value_observed = 0.00192

[[record]]
molecule = "L3.PY/L1.AH/H3.YA: anti-BCMA antibody (antibody, V domains shown) VH: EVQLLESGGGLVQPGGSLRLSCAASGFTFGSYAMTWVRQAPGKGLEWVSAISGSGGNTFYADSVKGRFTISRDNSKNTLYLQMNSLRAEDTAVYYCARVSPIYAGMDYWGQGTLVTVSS VL: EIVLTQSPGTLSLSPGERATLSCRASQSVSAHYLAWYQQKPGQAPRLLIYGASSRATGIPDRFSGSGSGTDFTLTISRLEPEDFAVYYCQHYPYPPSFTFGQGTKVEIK"
value_observed = 0.00526

